System: HCT-15 colon
Test Protocol: NCI-60 one-dose screen, 48 h (100 = growth as untreated, 0 = no growth, -100 = all killed)
Study Conditions: 10 µM unless noted
About 83,000 compounds went through this panel and 20% of them were active in at least one assay; those are over-represented in the sample as a whole.
The following ranges of growth define the classes used here: low-valued = under 20%, mid-valued = from 20% up to 60%, high-valued = 60% and over

> print(dat)
                              smiles.string  assigned.class
1  C#CCN(C)CCCOc1ccc(NC(=O)CCCCCCCCC(=O)NO)cc1Cl     high-valued
2    Cc1nc(/N=C(N)/N=C(\N)c2cccc(Br)c2)sc1C      mid-valued
3  O=C1[C@@H]2Cc3c([nH]c4ccccc34)[C@@H](c3ccc(Cl)cc3)N2C(=O)CN1C1CCN(Cc2c(F)cccc2F)CC1      mid-valued
4                    Cc1cc(=O)[nH]c(O)c1C#N     high-valued
5  C[C@@H]1OCC2(CCN(c3cnc(C(=O)Nc4cc(F)cc5cccnc45)cn3)CC2)[C@@H]1N      mid-valued
6  COc1ccc(-c2cnc(NC(=O)CCCCCCNC(=O)C(O)(O)C(F)(F)F)s2)cc1      low-valued
7  O=c1nc(Nc2ccc([N+](=O)[O-])cc2O)sc2ccccc12      mid-valued
8  CN1CCN(c2ccc(Nc3nc(NCCNS(=O)(=O)c4ccccc4)c4sccc4n3)cc2)CC1     high-valued

query: Tag the class for "CN(C)S(=O)(=O)c1ccc(-c2nc(C(Cl)Cl)nc3cc(-c4ccc(F)cc4)nn23)cc1"
result: low-valued

query: Which growth band matches "COc1ccccc1N1CCN(C2=C(Cl)C(=O)c3ncccc3C2=O)CC1" ?
result: mid-valued

====

Tested on: OVCAR-8 ovarian
Test Protocol: NCI-60 one-dose screen, 48 h (100 = growth as untreated, 0 = no growth, -100 = all killed)
Study Conditions: 10 µM unless noted
This is part of a sample that, as a whole, favours compounds with a hit. Of some 83,000 tested, about 20% had one in any assay. The source made the active and inactive calls. The calls were made as follows: active = growth percent below 10; inactive = the rest.
Reported Endpoint: growth

> print(dat)
                              smiles.string  reported.endpoint        data.value
1           C#Cc1nc(C(=O)NCCCCCCC(=O)NO)cs1             growth  15.8% (inactive)
2  CN1CCN(Cc2ccc(NC(=O)c3cncc(C#Cc4cnc5ccc(OCCCS(C)(=O)=O)nn45)c3)cc2C(F)(F)F)CC1             growth   -20.5% (active)
3  Cc1ccc2c(n1)C(=O)C(Cl)=C(Nc1ccccc1C(=O)OC(C)(C)C)C2=O             growth  66.8% (inactive)
4  Cn1cc(-c2nnc(N)nc2-c2c[nH]c3ccc(Br)cc23)c2cc(Br)ccc21             growth   104% (inactive)

Turning now to a further compound:
query: Entry "NS(=O)(=O)c1ccc(Nc2nc(N/N=C/C=C/c3ccccc3)nc(Nc3ccccc3)n2)cc1" : reported growth = ?
result: 50% (inactive)

====

Test system: DU-145 prostate
Test Protocol: NCI-60 one-dose screen, 48 h (100 = growth as untreated, 0 = no growth, -100 = all killed)
Study Conditions: 10 µM unless noted
This is part of a sample that, as a whole, favours compounds with a hit. Of some 83,000 tested, about 20% had one in any assay.
Note to self: values exactly at 70% are Met. So growth at or above 70% is Met, below is Not met.

Take a look at these entries with their results.
> print(dat)
                              smiles.string  assigned.class
1  O=C(NNc1nc2cc(F)cc(F)c2n2cccc12)c1cccnn1         Not met
2  COc1cc(C(=O)c2cc(C(C)=O)c3ccc(C)cn23)cc(OC)c1OC         Not met
3    Cc1csc(/N=C(N)/N=C(\N)c2cccc(C#N)c2)n1             Met
4  COc1ccc(/C=N/NC(=O)CSc2nc(-c3cnccn3)cc(-c3cccs3)c2C#N)cc1OC             Met
5  O=c1[nH][nH]c(-c2ccc(F)cc2)c1-c1nc2ccccc2s1             Met
6  CCN(CC)c1ccc(/C=N/NC(=O)c2ccc(S(N)(=O)=O)cc2)c(O)c1         Not met
7  Cc1cc(Br)ccc1-n1cc(C#N)c(N)c1C(=O)c1ccc(Br)cc1             Met
8  O=C(CCCCCCNC(=O)C(O)(O)C(F)(F)F)Nc1ccc(Br)cc1         Not met
9  COc1cc(/C=N\NC(=O)c2ccc3nc(-c4ccc(Br)cc4)[nH]c3c2)cc(OC)c1OC         Not met

Next molecule, please.
query: Say whether "COc1ccc(-c2c(C(N)=O)c(N)n(Cc3nc4ccccc4[nH]3)c(=O)c2C#N)c(OC)c1" shows growth of 70% or more.
result: Met
